# Tested on: stage 2 neural stem cells
# EXPERIMENT_DESCRIPTION: factor criticality analysis (dynamic profile analysis) of stage 3 recipe
# Assay type: cell-based, human
# Set-up: unit not given here
# PARTICULARS: other five factors present, 1650 with all six factors
Readings of expression level of ASCL1 when the effector is removed for the listed molecules
ATTRIBUTE_MEASURED: expression level of ASCL1 when the effector is removed

>>> quantitative_result("c1ccc2c(Oc3nc(Nc4ccc(N5CCOCC5)cc4)c4ncn(C5CCCCC5)c4n3)cccc2c1 [Purmorphamine]")
1200
>>> quantitative_result("C[C@H](NC(=O)Cc1cc(F)cc(F)c1)C(=O)N[C@@H]1C(=O)N(C)c2ccccc2-c2ccccc21 [GSI-XX]")
1200
>>> quantitative_result("Cc1ccc(NC(=O)Nc2cc(C(F)(F)F)ccc2F)cc1Nc1ccc2c(c1)NC(=O)/C2=C\\c1ccc[nH]1 [GNF5837]")
1300
>>> quantitative_result("Cc1cccc(-c2nn(C(=S)Nc3ccccc3)cc2-c2ccnc3ccccc23)n1 [A8301]")
1000
